# System: rat small-intestinal brush border membrane vesicles
# ASSAY_INFO: Inhibitory effect on 33PO4 uptake into rat small-intestinal brush border membrane vesicles (rapid filtration method)
# Format: biochemical, Wistar female rat
# CONDITION_DESCRIPTION: 1 µM test compound; 33PO4 uptake into rat small-intestinal BBMVs, 60 seconds
MEASURED_PROPERTY: Rate of uptake inhibition (%) (1 µM)
Write the quantity with the unit trailing the number.

Enquiry: I'd like to know its Rate of uptake inhibition (%) (1 µM). The molecule in question is C[C@]12CCCN1N(Cc1cccc(F)c1F)C(=O)C(C(=O)Nc1ccc(Cl)cc1F)=C2O
Return: 77%

Enquiry: Look up Rate of uptake inhibition (%) (1 µM) for this molecule: CN(C)CC(C)(C)COc1ccc(CN2C(=O)C(C(=O)Nc3ccc(C(F)(F)F)cc3-c3cc(C(F)(F)F)ncn3)=C(O)C3(CCCC3)N2C)c(F)c1F
Return: 27%

Enquiry: Which Rate of uptake inhibition (%) (1 µM) is reported for this molecule? Cc1nc(NC(=O)C2=C(O)[C@H](C(C)(C)C)N(C)N(Cc3cccc(F)c3F)C2=O)ccc1Br
Return: 86%

Enquiry: Which Rate of uptake inhibition (%) (1 µM) value is on record for CC(C)(C)[C@H]1C(O)=C(C(=O)Nc2ccc(Cl)cc2-c2ccc(C(F)(F)F)nc2)C(=O)N(Cc2cccc(F)c2F)N1CC(F)(F)F ?
Return: 51%

Enquiry: // query Rate of uptake inhibition (%) (1 µM) value for entry C[C@]12CCCN1N(Cc1ccc(OCCN3CCOCC3)c(F)c1F)C(=O)C(C(=O)Nc1ccc(Cl)cc1-c1ccc(C(F)(F)F)nc1)=C2O
Return: 65%

Enquiry: Record request: Rate of uptake inhibition (%) (1 µM) value, item CN1N(Cc2ccc(OCCCOCCCO)c(F)c2F)C(=O)C(C(=O)Nc2ccc(C(F)(F)F)cc2-c2cc(C(F)(F)F)ncn2)=C(O)C12CCCC2
Return: 34%

Enquiry: So what's the measured Rate of uptake inhibition (%) (1 µM) for this one? C[C@]12CCCN1N(Cc1c(F)cc(OCCCCCCOC[C@H](O)CO)cc1F)C(=O)C(C(=O)Nc1ccc(C(F)(F)F)cc1-c1ccc(C(F)(F)F)nc1)=C2O
Return: 77%

Enquiry: Would you mind telling me what Rate of uptake inhibition (%) (1 µM) value was observed for C[C@]12CCCN1N(Cc1cccc(Cl)c1F)C(=O)C(C(=O)Nc1cc(F)c(Br)c(F)c1)=C2O ?
Return: 90%

Enquiry: Return reported Rate of uptake inhibition (%) (1 µM); argument: CSc1ccc(-c2cc(C(F)(F)F)ccc2NC(=O)C2=C(O)[C@H](C(C)(C)C)N(C)N(Cc3ccc(OCCN4CCOCC4)c(F)c3F)C2=O)cn1
Return: 63%

Enquiry: Look at this molecule and give its reported Rate of uptake inhibition (%) (1 µM). CN(C)S(=O)(=O)c1ccc(-c2nc(C(F)(F)F)ccc2NC(=O)C2=C(O)[C@@]3(C)CCCN3N(Cc3cccc(F)c3F)C2=O)cc1
Return: 84%

Enquiry: Which Rate of uptake inhibition (%) (1 µM) value belongs to COCCN(C)CCOc1c(-c2cccnc2)cc(CN2C(=O)C(C(=O)Nc3ccc(C(F)(F)F)cc3-c3cc(C(F)(F)F)ncn3)=C(O)C3(CCCC3)N2C)c(F)c1F ?
Return: 28%

Enquiry: Quick one: Rate of uptake inhibition (%) (1 µM) for CC(C)[C@H]1C(O)=C(C(=O)Nc2ccc(C(F)(F)F)cc2-c2cc(C(F)(F)F)ncn2)C(=O)N(Cc2cccc(F)c2F)N1C ?
Return: 53%

Enquiry: // lookup Rate of uptake inhibition (%) (1 µM) for CN1N(Cc2ccc(OCCN3CCOC(C)(C)C3)c(F)c2F)C(=O)C(C(=O)Nc2ccc(C(F)(F)F)cc2-c2cc(C(F)(F)F)ncn2)=C(O)C12CCC2
Return: 43%

Enquiry: # get_value(readout='Rate of uptake inhibition (%) (1 µM)', item= C[C@]12CCCN1N(Cc1cccc(Cl)c1F)C(=O)C(C(=O)Nc1ccc(C(F)(F)F)cc1-c1ccc(C(F)(F)F)nc1)=C2O )
Return: 75%

Enquiry: For the molecule shown here, C[C@]12CCCN1N(Cc1cccc(F)c1F)C(=O)C(C(=O)Nc1ccc(C(F)(F)F)cc1-c1cc(Cl)cnc1Cl)=C2O , give the reported Rate of uptake inhibition (%) (1 µM).
Return: 91%

Enquiry: Requested read-out: Rate of uptake inhibition (%) (1 µM). Entry: Cc1cc(NC(=O)C2=C(O)[C@@H]3CC(C)(C)CN3N(Cc3cccc(F)c3)C2=O)c(C(F)(F)F)o1
Return: 11%

Enquiry: // lookup Rate of uptake inhibition (%) (1 µM) for CN1[C@@H](C(C)(C)C)C(O)=C(C(=O)Nc2cnc(C(F)(F)F)nc2-c2ccc(C(F)(F)F)nc2)C(=O)N1Cc1ccc(OCCN2CCOCC2)c(F)c1F
Return: 41%

Enquiry: // returns reported Rate of uptake inhibition (%) (1 µM) for input C[C@]12CCCN1N(Cc1cccc(F)c1F)C(=O)C(C(=O)Nc1ccc(C(F)(F)F)cc1)=C2O
Return: 67%
